Known IC50 of a selection of molecules
Target: human IDO1 (Homo sapiens, UniProt P14902)
Sequence (P14902 whole entry): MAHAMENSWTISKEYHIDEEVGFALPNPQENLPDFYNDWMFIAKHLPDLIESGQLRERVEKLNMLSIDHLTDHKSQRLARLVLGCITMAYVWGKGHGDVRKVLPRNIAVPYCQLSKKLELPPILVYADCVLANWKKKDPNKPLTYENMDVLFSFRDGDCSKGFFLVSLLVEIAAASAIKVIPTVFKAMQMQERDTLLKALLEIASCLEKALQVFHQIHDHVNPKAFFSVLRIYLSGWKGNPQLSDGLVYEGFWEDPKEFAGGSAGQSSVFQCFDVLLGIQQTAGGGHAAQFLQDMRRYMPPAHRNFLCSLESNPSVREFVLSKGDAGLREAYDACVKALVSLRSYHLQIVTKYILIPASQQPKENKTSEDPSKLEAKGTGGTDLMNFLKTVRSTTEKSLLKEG
Test: HEK Human IDO-1 inhibition assay (kynurenine readout, Ehrlich reagent, absorbance 490 nm)
Details: human IDO1/HEK293 cells, incubated 20 hours with compound; 500 nM reference standard = 100% inhibition

Example results:
- C=C(C)CN(c1ccc(OC(C)C(=O)O)cc1NC(=O)Nc1ccc(C)cc1)C1CCOCC1 (racemic): ≥ 0.1 µM
- Cc1ccc(NC(=O)Nc2cc(OCC(=O)NS(=O)(=O)N(C)C)ccc2N(CC(C)C)C2CCCCC2)cc1: < 0.1 µM
- CC(C)CN(c1cc(F)c(OCC(=O)O)cc1NC(=O)Nc1ccc(OC(F)(F)F)cc1)C1CCCCC1: < 0.1 µM
- CCCN(Cc1ccccc1)c1ccc(OCC(=O)O)cc1NC(=O)Nc1ccc(Cl)cc1F: < 0.1 µM
- CC(C)CN(c1ccc(OCC(=O)O)cc1NC(=O)Nc1ccc(N(C)C)cc1)C1CCCCC1: ≥ 0.1 µM

Exercise: Entry CC(Oc1ccc(N(CCC(F)(F)F)C2CCOCC2)c(NC(=O)Nc2ccc(Cl)cc2F)c1)C(=O)O (stereo not shown) : reported IC50 = ?
Solution: ≥ 0.1 µM

Exercise: Entry CC(C)CN(c1ccc(OC(C)C(=O)O)cc1NC(=O)Nc1ccc(Cl)cc1F)C1CCOC1 (single isomer, unassigned) [Example 146-1] : reported IC50 = ?
Solution: ≥ 0.1 µM

###

Known IC50 of a selection of compounds
Molecular target: human IDO1 (Homo sapiens, UniProt P14902)
Experiment: HEK Human IDO-1 inhibition assay (kynurenine readout, Ehrlich reagent, absorbance 490 nm)
Settings: human IDO1/HEK293 cells, incubated 20 hours with compound; 500 nM reference standard = 100% inhibition

• Cc1ccc(NC(=O)Nc2cc(OCC(=O)O)c(Cl)cc2N(CC(C)C)C2CCCCC2)cc1 = ≥ 100 nM
• CC(C)CN(c1ccc(OC(C)C(=O)O)cc1NC(=O)Nc1cncnc1)C1CCCCC1 (single isomer, unassigned) [Example 58-1] = ≥ 100 nM
• C=C(C)CN(CCCC(F)(F)F)c1cc(F)c(OCC(=O)O)cc1NC(=O)Nc1ccc(C)cc1 = < 100 nM
• CC(C)CN(c1ccc(OCC(=O)O)cc1NC(=O)Nc1cncnc1)C1CCCCC1 = ≥ 100 nM
• COCCN(c1ccc(OCC(=O)O)cc1NC(=O)Nc1ccc(F)cc1F)C1CCCCC1 = ≥ 100 nM
• CC(C)CN(c1ccc(OCC(=O)NS(=O)(=O)C2CC2)cc1NC(=O)Nc1ccc(Cl)cc1F)C1CCCCC1 = < 5 nM
• CC(C)CN(c1cc(F)c(OCC(=O)O)cc1NC(=O)Nc1ccc(Br)cc1F)C1CCCCC1 = < 5 nM
• CC(C)CN(c1ccc(OC(C)C(=O)NS(=O)(=O)C2CC2)cc1NC(=O)Nc1ccc(Cl)cc1F)C1CCCCC1 (racemic) = < 5 nM

Exercise: Entry `Cc1ccc(NC(=O)Nc2cc(OCC(=O)O)ccc2N(CC(C)C)C2CCCCC2)c(F)c1` : reported IC50 = ?
Solution: < 5 nM

###

Known pIC50 of a selection of compounds
Biological target: human IDO1 (Homo sapiens)
Construct: expressed in transfected cells
Experiment: HEK Human IDO-1 inhibition assay (kynurenine readout, Ehrlich reagent, absorbance 490 nm)
Type: cell-based
Settings: human IDO1/HEK293 cells, incubated 20 hours with compound; 500 nM reference standard = 100% inhibition
pIC50: −log10 of the molar value.

- CC(C)CN(c1ccc(OCC(=O)O)cc1NC(=O)Nc1ccc(Cl)cc1F)C1CCOC1 (stereo not shown) [Example 144]: ≤ 7.00
- CC(C)CN(c1ccc(OCC(=O)O)cc1NC(=O)Nc1cccc(C(F)(F)F)c1F)C1CCCCC1 [Example 27]: ≤ 7.00
- C=C(C)CN(CCCC(F)(F)F)c1cc(F)c(OCC(=O)O)cc1NC(=O)Nc1cc(C)no1 [Example 121]: > 7.00
- CC(C)CN(c1ccc(OC(C)C(=O)O)cc1NC(=O)Nc1ccc(Cl)cc1F)C1CCOC1 (stereo not shown) [Example 145]: > 7.00
- CC(C)CN(c1ccc(OCC(=O)NCC(F)(F)F)cc1NC(=O)Nc1ccc(Cl)cc1F)C1CCCCC1 [Example 135]: ≤ 7.00

Exercise: Entry CC(C)CN(c1c(C#N)cc(OCC(=O)O)cc1NC(=O)Nc1ccc(Cl)cc1F)C1CCCCC1 [Example 108] : reported pIC50 = ?
Solution: > 7.00

Exercise: Entry CCCC(Oc1ccc(N(CC(C)C)C2CCCCC2)c(NC(=O)Nc2ccccc2F)c1)C(=O)O (single isomer, unassigned) [Example 87-2] : reported pIC50 = ?
Solution: > 8.30
